Tested Target: T1, CD47 on the surface of CD47+ cells (human, UniProt Q08722 19-323)
T1 construct: whole, on cells; also called CD47+ cell lines; CD47 on Raji cells, HCT-15 cells, human red blood cells (RBCs), human platelets
Protocol Text: flow cytometry on CD47+ cell lines; EC50 as grade, legend the 7th table, row 26
pEC50: −log10 of the molar value.
Give pEC50 for every item shown.

Worked cases, pEC50 given:
{"columns": ["Binder", "Value Type", "Value Measured"],
 "data": [
  ["R.19H7 (antibody, human IgG1, kappa, V domains shown, Chimeric: rabbit variable domains, human IgG1 and human kappa constant regions) VH: QEQLKESGGGLVTPGGTLTLTCTASGFTISSYHMCWVRQAPGKGLEWIGCIYPNNDFTWYATWAKGRFTISKTSSTTVDLRMTTPTTEETATYFCARASGNAYNLLDLWGQGTLVTVSS VL: AIVMTQTPASVSVAVGGSVTINCQSSESVYRDNCLGWFQQKPGQPPKLLIYRASTLASGVPSRFKGSGSGTQFTLTISDVVSDDAATYYCAGYKSTITDGTAFGGGTEVVVKR", "pEC50", "9.30 to 10.00"],
  ["M.69H1H9 (antibody, human IgG1, kappa, V domains shown, Chimeric: mouse variable domains, human IgG1 and human kappa constant regions) VH: EVQLQQSGPELVKPGASVKMSCKTSGYTFTEYTIHWVKQSHEKSLEWIGSINPNNGLFRYNQKFKGKATLTVDKSSSTAYMELRSLTSEDSAVYYCARDYGFGYSDYWGQGTTLTVSS VL: DIQMIQSPSSMFASLGDRVSLSCRASQGIRGNLDWYQQKPGGTIKLLIYSTSNLNSGVPSRFSGSGSGSDYSLTISSLESEDFADYYCLQRNAFPWTFGGGTKLEIKR", "pEC50", "9.30 to 10.00"]
]}

For each of the binders below, note its pEC50.
1. R.9B11 (antibody, human IgG1, kappa, V domains shown, Chimeric: rabbit variable domains, human IgG1 and human kappa constant regions) VH: QEQLEESGGDLVKPEGSLTLTCTASGFSFSSYWMAWVRQAPGKGLEWIACIYIGSGSGTTYYASWAKGRFTISKTSSTTVTLQMTSLTAADTAIYFCARWAGSDGHFTLWGPGTLVTVSL VL: ALVMTQTPASVEAAVGGTVTINCQASQSINNLLAWYQQKPGQRPKLLIYDASDLASGVSSRFKGSGSGTEYTLTISGVQSADAATYYCQGYFYGSSVDLVFGGGTEVVVKR
2. M.20B10E9 (antibody, human IgG1, kappa, V domains shown, Chimeric: mouse variable domains, human IgG1 and human kappa constant regions) VH: EVQLQQSGAELVRPGASVKLSCTASGFNIEDTYMHWVKQRPEQGLEWIGRIDPANGKTKSDPKFQGKATITTDTSSNTAYLQLSSLTSEDTAVYYCAKGDGYYVGGLDYWGQGTTLTVSS VL: DIQMNQSPSSLSASLGDTITITCHASQNIHVWLSWYQQKPGNIPKLLIYKASNLHTGVPSRFSGSGSGTGFTLTISSLQPEDIATYYCQQGQSYPYTFGGGTKLEIKR
3. R.14G4 (antibody, human IgG1, kappa, V domains shown, Chimeric: rabbit variable domains, human IgG1 and human kappa constant regions) VH: QEQLKESGGGLVTPGGTLTLTCTASGFTITSYHMCWVRQAPGKGLEWIGCIYPNNGFTWYASWAKGRFTISKTSSTTVDLKMTSPTTEEMATYFCARGSGNSYNQLDLWGQGTLVTVSS VL: AIVMTQTPASVSATLGGSVTINCQSSESVYRDNCLGWFQQKPGQPPKLLIYKASTLASGVPSRFKGSGSGTQFTLTISDVVSDDAATYYCAGYKSTITDGTAFGGGTEVVVKR
4. R.13A2 (antibody, human IgG1, kappa, V domains shown, Chimeric: rabbit variable domains, human IgG1 and human kappa constant regions) VH: QSLEESGGDLVKPGASLTVTCTASGFSFSSYYYVCWVRQAPGKGLEWIACIYAGSSGDTYYASWAKGRFTISKTSSTTVTLQMTSLTAADTATYFCARGYTGYSYQFNFWGPGTLVTVSS VL: DVVMTQTPASVEAAVGGTVTIKCQASQSISNELSWYQQKPGQPPKLLIYRASTLESGVPSRFKGSGSGTEFTLTISDLESADAATYYCQCTYITYGNAFGGGTEVVVKR
5. M.30A5C6 (antibody, human IgG1, kappa, V domains shown, Chimeric: mouse variable domains, human IgG1 and human kappa constant regions) VH: EVQLQQSGAELVKPGASVKLSCTASGFNIEDTYMHWVKQRPEQGLEWIGRIDPANGNTKYDPKFQGKATVTADTSSNTAYLQLSSLTSEDTAVYCCARGDGHYVGGLNYWGQGTSLTVSS VL: DIQMNQSPSSLSASLGDTITITCHASQNINVWLSWYQQKPGNIPKLLIYKASNLHTGVPSRFSGSGSGTGFTLTISSLQPEDIATYYCQQGQNYPYTFGGGTKLEIKR
6. R.15G10 (antibody, human IgG1, kappa, V domains shown, Chimeric: rabbit variable domains, human IgG1 and human kappa constant regions) VH: QSLEESGGRLVTPGTPLTLTCTASGFTISSYHMNWVRQAPGEGLEWIGIIYVGSGNADYASWAKGRFTISKASTTVDLKITSPTTEDTATYFCARGPTNTYPTYFNLWGPGTLVTVSS VL: AFELTQTPSSVEAAVGGTVTIKCQASRSITSYLAWYQHKPGQPPTLLIYAASNVASGVSSRFKGSRSGTEYTLTISDLESADAATYYCQSYYAISTNTFGGGTEVVVKR
7. R.20H1 (antibody, human IgG1, kappa, V domains shown, Chimeric: rabbit variable domains, human IgG1 and human kappa constant regions) VH: QEQLVESGGGLVKPGASLTLTCKASGFSFSSGYYMCWVRQAPGKGLEWIGCIYVRSDSTYYASWAKGRFTISKASSTTVTLQMTSLTAADTATYFCARGVTGDSYRFNFWGPGTLVTVSS VL: DVVMTQTPASVEAAVGGTVTIKCQASQSISNELSWYQQKSGQPPKLLIYRASTLESGVPSRFKGSGSGTEFTLTISDLESADAATYYCQSTYYGTSYGNAFGGGTEVVVKR

["8.30 to 9.30", "9.30 to 10.00", "< 8.30", "8.30 to 9.30", "9.30 to 10.00", "8.30 to 9.30", "9.30 to 10.00"]
